Experimental target: SlCOI1-SlJAZ6
Measurement notes: AlphaScreen assay, GST-SlCOI1 and Fl-SlJAZP6
Test context: calculated from AlphaScreen; 5 nM SlCOI1, 10 nM Fl-SlJAZP6
The following compounds are shown together with reported Kd values.
Response body: numeric value in nM, unit text excluded.

# Compound, Output unit, Kd
data = [
    ("CC/C=C\\C[C@@H]1C(=O)CC[C@@H]1CC(=O)N[C@H](C(=O)O)[C@@H](C)CC [JA-Ile, (+)-7-iso-Jasmonoyl-L-isoleucine]", "nM", 4.1),
]

Let us move to another entry and its Kd.
Please give the measured Kd for this compound: CC[C@H]1C=C(C(=O)N[C@@]2(C(=O)O)C[C@@H]2CC)[C@H]2CCC(=O)[C@H]2C1
0.76

---

Experimental target: SlCOI1-SlJAZ13 (Solanum lycopersicum, UniProt A0A3Q7EQ67+Q6TDU2)
Measurement notes: AlphaScreen assay, GST-SlCOI1 and Fl-SlJAZP13
Type: binding
Test context: calculated from AlphaScreen; 5 nM SlCOI1, 10 nM Fl-SlJAZP13; read-out: Kd
Measured metric: pKd
When answering, recall that pKd equals minus log10 of the concentration in mol/L, and write that number alone.

Please give the measured pKd for this compound: CC/C=C\C[C@@H]1C(=O)CC[C@@H]1CC(=O)N[C@H](C(=O)O)[C@@H](C)CC [JA-Ile, (+)-7-iso-Jasmonoyl-L-isoleucine]
6.20

---

Experimental target: SlCOI1-SlJAZ5 (Solanum lycopersicum, UniProt A0A3Q7FUH8+Q6TDU2)
Measurement notes: AlphaScreen assay, GST-SlCOI1 and Fl-SlJAZP5
Assay type: binding
Test context: calculated from AlphaScreen; 5 nM SlCOI1, 10 nM Fl-SlJAZP5; read-out: Kd
Measured metric: Kd
Numeric answer plus unit only.

Please give the measured Kd for this compound: CC/C=C\C[C@@H]1C(=O)CC[C@@H]1CC(=O)N[C@H](C(=O)O)[C@@H](C)CC [JA-Ile, (+)-7-iso-Jasmonoyl-L-isoleucine]
4.2 nM

---

Experimental target: GST-SlCOI1 and SlJAZP1-4DOD
Measurement notes: AlphaScreen assay, GST-SlCOI1 and swapped SlJAZP1-4DOD
Test context: swapped peptide: DOD sequence of SlJAZP1 swapped with that of SlJAZP4
Measured metric: pKd
When answering, recall that pKd equals minus log10 of the concentration in mol/L, and write that number alone.

Please give the measured pKd for this molecule: CC/C=C\C[C@@H]1C(=O)CC[C@@H]1CC(=O)N[C@H](C(=O)O)[C@@H](C)CC [JA-Ile, (+)-7-iso-Jasmonoyl-L-isoleucine]
7.33

---

Experimental target: SlCOI1-SlJAZ13 (Solanum lycopersicum, UniProt A0A3Q7EQ67+Q6TDU2)
Measurement notes: AlphaScreen assay, GST-SlCOI1 and Fl-SlJAZP13
Format: binding
Test context: calculated from AlphaScreen; 5 nM SlCOI1, 10 nM Fl-SlJAZP13
Measured metric: pKd
When answering, recall that pKd equals minus log10 of the concentration in mol/L, and write that number alone.

Please give the measured pKd for this compound: CC[C@H]1C=C(C(=O)N[C@@]2(C(=O)O)C[C@@H]2CC)[C@H]2CCC(=O)[C@H]2C1 [COR, coronatine]
7.09

---

Experimental target: SlCOI1-SlJAZ1 (Solanum lycopersicum, UniProt A0A3Q7H988+Q6TDU2)
Sequence (Q6TDU2 1-603): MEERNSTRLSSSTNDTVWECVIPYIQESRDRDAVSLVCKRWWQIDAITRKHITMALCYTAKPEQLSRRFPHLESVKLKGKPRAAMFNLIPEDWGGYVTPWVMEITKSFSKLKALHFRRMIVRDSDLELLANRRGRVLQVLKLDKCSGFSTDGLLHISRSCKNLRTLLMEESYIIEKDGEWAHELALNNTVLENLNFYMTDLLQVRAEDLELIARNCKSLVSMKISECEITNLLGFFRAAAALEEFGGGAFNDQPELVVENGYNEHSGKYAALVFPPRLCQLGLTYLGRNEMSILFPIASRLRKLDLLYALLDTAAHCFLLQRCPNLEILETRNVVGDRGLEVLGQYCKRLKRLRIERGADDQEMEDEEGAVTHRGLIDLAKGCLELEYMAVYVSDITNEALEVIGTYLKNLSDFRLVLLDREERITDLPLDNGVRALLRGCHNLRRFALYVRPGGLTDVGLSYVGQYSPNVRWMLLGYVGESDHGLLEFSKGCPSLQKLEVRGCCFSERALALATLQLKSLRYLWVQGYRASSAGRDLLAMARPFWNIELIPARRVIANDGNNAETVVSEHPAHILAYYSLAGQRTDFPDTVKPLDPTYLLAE
Sequence (A0A3Q7H988 159-185): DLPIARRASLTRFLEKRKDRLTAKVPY
Sequence (Q39255 1-160 partner): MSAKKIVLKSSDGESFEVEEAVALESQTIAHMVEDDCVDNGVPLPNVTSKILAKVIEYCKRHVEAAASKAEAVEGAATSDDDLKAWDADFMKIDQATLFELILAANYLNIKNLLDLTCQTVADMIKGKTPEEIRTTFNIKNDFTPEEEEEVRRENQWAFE
Measurement notes: AlphaScreen assay, GST-SlCOI1 and Fl-SlJAZP1
Type: binding
Test context: calculated from AlphaScreen; 5 nM SlCOI1, 10 nM Fl-SlJAZP1
Measured metric: pKd
When answering, recall that pKd equals minus log10 of the concentration in mol/L, and write that number alone.

Please give the measured pKd for this compound: CC[C@H]1C=C(C(=O)N[C@@]2(C(=O)O)C[C@@H]2CC)[C@H]2CCC(=O)[C@H]2C1
8.31
